System: K-562 leukemia
Assay: NCI-60 one-dose screen, 48 h
Conditions: 10 µM unless noted
The panel holds about 83,000 compounds, 20% with a hit somewhere; the sample as a whole holds those more often. Active and inactive are the calls of the source. How the source made its calls: active means growth percent below 10; inactive means the rest.
Returns: one label drawn from 1 (active), -1 (inactive)

Worked examples follow.
Cn1c(N)c(N=O)c(=O)[nH]c1=O: -1
O=C(CCc1nnc(SCc2ccccc2)s1)c1nc2ccccc2[nH]1: -1
CNc1ccc(CSc2ccc(Cl)cc2)cc1: -1
O=C(CSc1nc2c(n1Nc1ccccc1)-c1ccccc1SC2)Nc1nc(-c2ccc(Cl)cc2)cs1: -1
CN1C(=O)/C(=C/c2nc(-c3cccc(F)c3)n3ccccc23)c2ccccc21: -1

Hey, what did the test say about `Nc1ncc(-c2cnn(C3CCNCC3)c2)cc1-c1nc2cc(Cl)ccc2o1` ? 1

Hey, what did the test say about `O[C@@H]1Cc2ccc3ccccc3c2N[C@H](c2ccoc2)C1` ? -1

Hey, what did the test say about `COc1ccc(C(=O)COc2cccc(/C=C3\Oc4ccc5ccccc5c4C3=O)c2)cc1` ? -1

Hey, what did the test say about O=c1[nH]c(=O)n(C2CC(O)C(CO)O2)cc1C(F)(F)F (stereo not drawn) ? -1

Hey, what did the test say about `CCC1=C(c2ccc(OC)cc2)C(C)(C)Oc2c1ccc(O)c2CN1CCCC1` ? 1

Hey, what did the test say about `S=C(c1ccccc1)N1CCN(c2cccc(Cl)c2)CC1` ? -1

Hey, what did the test say about `CCN1C(=O)c2ccc3c4c(ccc(c24)C1=O)C(=O)N(CCCNCc1ccccc1OC)C3=O` ? 1

Hey, what did the test say about `Clc1ccc2c(Nc3ccc4oc(NCCN5CCCC5)nc4c3)ccnc2c1` ? -1

Hey, what did the test say about `O=C(Nc1ccc(Cl)cc1)Nc1ccc(Nc2nncc3ccccc23)cc1` ? 1

Hey, what did the test say about `CCOC(=O)c1cc(-c2cccnc2)nc2c(Cl)cc(Cl)cc12` ? -1

Hey, what did the test say about `C=CCCCCCCCCC(=O)[O][Sn]([CH2]CCC)([CH2]CCC)[CH2]CCC` ? 1
